System: HS934T
experimentalProtocol: Colony formation (CFU) assay
Format: cell-based
conditionNotes: melanoma
pIC50: −log10 of the molar value.
readoutLabel: pIC50

Exam item: Which value of pIC50 has been reported for COc1ncnc(C2CC2)c1-c1ncc2cnn(Cc3ccc(-c4nc(C(F)(F)F)cn4C)cc3)c2n1 [Formula II] in the records?
Marked response: < 6.52

Exam item: Which value of pIC50 has been reported for NC(=O)c1cccc2cn(-c3ccc([C@@H]4CCCNC4)cc3)nc12 [Niraparib, niraparib, reference compound] in the records?
Marked response: < 6.52

----------
Test system: HPAC
experimentalProtocol: Colony formation (CFU) assay
Assay type: cell-based
conditionNotes: Homo sapiens, pancreas
readoutLabel: IC50

Exam item: Which value of IC50 has been reported for NC(=O)c1cccc2cn(-c3ccc([C@@H]4CCCNC4)cc3)nc12 [Niraparib, niraparib, reference compound] in the records?
Marked response: > 300 nM

Exam item: Which value of IC50 has been reported for COc1ncnc(C2CC2)c1-c1ncc2cnn(Cc3ccc(-c4nc(C(F)(F)F)cn4C)cc3)c2n1 in the records?
Marked response: > 300 nM

----------
Tested on: NCIH1693
experimentalProtocol: Colony formation (CFU) assay
Type: cell-based
conditionNotes: Homo sapiens, NCI-H1693; NCIH1693, lung
readoutLabel: pIC50
# pIC50 = -log10(concentration in molar units)

Exam item: Which value of pIC50 has been reported for COc1ncnc(C2CC2)c1-c1ncc2cnn(Cc3ccc(-c4nc(C(F)(F)F)cn4C)cc3)c2n1 in the records?
Marked response: 7.90

----------
Test system: HCC1806
experimentalProtocol: Colony formation (CFU) assay
Assay type: cell-based
conditionNotes: Homo sapiens; HCC1806, breast
readoutLabel: IC50
Entry format: amount then unit.

Exam item: Which value of IC50 has been reported for COc1ncnc(C2CC2)c1-c1ncc2cnn(Cc3ccc(-c4nc(C(F)(F)F)cn4C)cc3)c2n1 [Formula II] in the records?
Marked response: 114 nM

Exam item: Which value of IC50 has been reported for NC(=O)c1cccc2cn(-c3ccc([C@@H]4CCCNC4)cc3)nc12 [Niraparib, niraparib, reference compound] in the records?
Marked response: 62.9 nM

----------
Give measured pIC50 for each item. Keep answers brief.
System: HSC2
experimentalProtocol: Colony formation (CFU) assay
Format: cell-based
conditionNotes: Homo sapiens, HSC-2; HSC2, head and neck
pIC50: −log10 of the molar value.

Exam item: Which value of pIC50 has been reported for NC(=O)c1cccc2cn(-c3ccc([C@@H]4CCCNC4)cc3)nc12 [Niraparib, niraparib, reference compound] in the records?
Marked response: < 6.52

Exam item: Which value of pIC50 has been reported for COc1ncnc(C2CC2)c1-c1ncc2cnn(Cc3ccc(-c4nc(C(F)(F)F)cn4C)cc3)c2n1 in the records?
Marked response: < 6.52

----------
Tested on: CAPAN1
experimentalProtocol: Colony formation (CFU) assay
Format: cell-based
conditionNotes: Homo sapiens, CAPAN-1; CAPAN1, pancreas
readoutLabel: pIC50
# pIC50 = -log10(concentration in molar units)

Exam item: Which value of pIC50 has been reported for NC(=O)c1cccc2cn(-c3ccc([C@@H]4CCCNC4)cc3)nc12 [Niraparib, niraparib, reference compound] in the records?
Marked response: 6.73

----------
Give measured IC50 for each item. Keep answers brief.
Test system: MER082
experimentalProtocol: Colony formation (CFU) assay
Assay type: cell-based
conditionNotes: Table 2; MER082, pleura

Exam item: GET /values?readout=IC50&system=MER082&item= O=C(c1cc(Cc2n[nH]c(=O)c3ccccc23)ccc1F)N1CCN(C(=O)C2CC2)CC1 [Olaparib, reference compound]
Marked response: > 316 nM

Exam item: GET /values?readout=IC50&system=MER082&item= COc1ncnc(C2CC2)c1-c1ncc2cnn(Cc3ccc(-c4nc(C(F)(F)F)cn4C(C)C)cc3)c2n1
Marked response: > 316 nM

----------
Give measured IC50 for each item. Keep answers brief.
System: NCIH520
experimentalProtocol: Colony formation (CFU) assay
Format: cell-based
conditionNotes: Homo sapiens, NCI-H520; Table 2; NCIH520, lung

Exam item: Which value of IC50 has been reported for COc1ncnc(C2CC2)c1-c1ncc2cnn(Cc3ccc(-c4nc(C(F)(F)F)cn4C(C)C)cc3)c2n1 in the records?
Marked response: > 316 nM

Exam item: Which value of IC50 has been reported for O=C(c1cc(Cc2n[nH]c(=O)c3ccccc23)ccc1F)N1CCN(C(=O)C2CC2)CC1 [Olaparib, reference compound] in the records?
Marked response: > 316 nM

----------
System: NCIH1838
experimentalProtocol: Colony formation (CFU) assay
Assay type: cell-based
conditionNotes: Homo sapiens, NCI-H1838; NCIH1838, lung
pIC50: −log10 of the molar value.
readoutLabel: pIC50

Exam item: Which value of pIC50 has been reported for COc1ncnc(C2CC2)c1-c1ncc2cnn(Cc3ccc(-c4nc(C(F)(F)F)cn4C)cc3)c2n1 in the records?
Marked response: < 6.52

Exam item: Which value of pIC50 has been reported for NC(=O)c1cccc2cn(-c3ccc([C@@H]4CCCNC4)cc3)nc12 [Niraparib, niraparib, reference compound] in the records?
Marked response: < 6.52

----------
System: GOTO
experimentalProtocol: Colony formation (CFU) assay
Format: cell-based
conditionNotes: nervous system
readoutLabel: pIC50
# pIC50 = -log10(concentration in molar units)

Exam item: Which value of pIC50 has been reported for NC(=O)c1cccc2cn(-c3ccc([C@@H]4CCCNC4)cc3)nc12 [Niraparib, niraparib, reference compound] in the records?
Marked response: 7.65

----------
System: T174
experimentalProtocol: Colony formation (CFU) assay
Assay type: cell-based
conditionNotes: T174, breast
pIC50: −log10 of the molar value.
readoutLabel: pIC50

Exam item: Which value of pIC50 has been reported for NC(=O)c1cccc2cn(-c3ccc([C@@H]4CCCNC4)cc3)nc12 [Niraparib, niraparib, reference compound] in the records?
Marked response: < 6.52

Exam item: Which value of pIC50 has been reported for COc1ncnc(C2CC2)c1-c1ncc2cnn(Cc3ccc(-c4nc(C(F)(F)F)cn4C)cc3)c2n1 in the records?
Marked response: < 6.52

----------
Tested on: NOS1
experimentalProtocol: Colony formation (CFU) assay
Format: cell-based
conditionNotes: NOS1, bone
readoutLabel: IC50

Exam item: Which value of IC50 has been reported for NC(=O)c1cccc2cn(-c3ccc([C@@H]4CCCNC4)cc3)nc12 [Niraparib, niraparib, reference compound] in the records?
Marked response: > 300 nM

Exam item: Which value of IC50 has been reported for COc1ncnc(C2CC2)c1-c1ncc2cnn(Cc3ccc(-c4nc(C(F)(F)F)cn4C)cc3)c2n1 in the records?
Marked response: > 300 nM

----------
System: SAOS2
experimentalProtocol: Colony formation (CFU) assay
Format: cell-based
conditionNotes: Homo sapiens, SAOS-2; SAOS2, bone
readoutLabel: IC50 (nM)
Use nM as the unit, but write only the number.

Exam item: GET /values?readout=IC50&system=SAOS2&item= NC(=O)c1cccc2cn(-c3ccc([C@@H]4CCCNC4)cc3)nc12 [Niraparib, niraparib, reference compound]
Marked response: 201

----------
Tested on: QGP1
experimentalProtocol: Colony formation (CFU) assay
Format: cell-based
conditionNotes: QGP-1; QGP1, pancreas
pIC50: −log10 of the molar value.
Give measured pIC50 for each item. Keep answers brief.

Exam item: Which value of pIC50 has been reported for NC(=O)c1cccc2cn(-c3ccc([C@@H]4CCCNC4)cc3)nc12 [Niraparib, niraparib, reference compound] in the records?
Marked response: < 6.52

Exam item: Which value of pIC50 has been reported for COc1ncnc(C2CC2)c1-c1ncc2cnn(Cc3ccc(-c4nc(C(F)(F)F)cn4C)cc3)c2n1 in the records?
Marked response: < 6.52

----------
Give measured IC50 for each item. Keep answers brief.
Tested on: LU99
experimentalProtocol: Colony formation (CFU) assay
Format: cell-based
conditionNotes: Homo sapiens, Lu-99; LU99, lung

Exam item: GET /values?readout=IC50&system=LU99&item= NC(=O)c1cccc2cn(-c3ccc([C@@H]4CCCNC4)cc3)nc12 [Niraparib, niraparib, reference compound]
Marked response: 88.6 nM

Exam item: GET /values?readout=IC50&system=LU99&item= COc1ncnc(C2CC2)c1-c1ncc2cnn(Cc3ccc(-c4nc(C(F)(F)F)cn4C)cc3)c2n1
Marked response: 35.4 nM

----------
Tested on: HBCx8
experimentalProtocol: Colony formation (CFU) assay
Format: cell-based
conditionNotes: HBCx8, breast
readoutLabel: IC50 (µM)
Use µM as the unit, but write only the number.

Exam item: Which value of IC50 has been reported for NC(=O)c1cccc2cn(-c3ccc([C@@H]4CCCNC4)cc3)nc12 [Niraparib, niraparib, reference compound] in the records?
Marked response: 0.107

----------
System: MSTO211H
experimentalProtocol: Colony formation (CFU) assay
Assay type: cell-based
conditionNotes: Homo sapiens, MSTO-211H, Table 2, lung
readoutLabel: IC50

Exam item: Which value of IC50 has been reported for O=C(c1cc(Cc2n[nH]c(=O)c3ccccc23)ccc1F)N1CCN(C(=O)C2CC2)CC1 [Olaparib, reference compound] in the records?
Marked response: > 316 nM

Exam item: Which value of IC50 has been reported for COc1ncnc(C2CC2)c1-c1ncc2cnn(Cc3ccc(-c4nc(C(F)(F)F)cn4C(C)C)cc3)c2n1 [Formula I] in the records?
Marked response: > 316 nM

Data provenance is patent US20230277533A1.
